Origin of values: ChEMBL document CHEMBL5335843

Tested on: Escherichia coli
Measurement description: Antibiotic adjuvant activity against Escherichia coli ATCC 25922 assessed as rifampicin MIC incubated for 18 hrs in presence of Rifampicin by two fold broth microdilution checkerboard assay
Format: functional
Measured quantity: MIC (µg/mL)
Hi! Could you send only the number? It should be in µg/mL, unit omitted.

// solved cases for MIC follow
>>> reported_value("Cl.NC[C@H]1O[C@H](O[C@H]2[C@H](OCc3ccccc3)[C@@H](O[C@H]3O[C@H](COCc4ccccc4)[C@@H](OCc4ccccc4)[C@H](N)[C@H]3OCc3ccccc3)[C@H](N)C[C@@H]2N)[C@H](N)C[C@@H]1OCc1ccccc1")
0.008
>>> reported_value("CC(C)CCO[C@@H]1[C@@H](OCCC(C)C)[C@H](N)C[C@H](N)[C@H]1O[C@H]1O[C@H](CN)[C@@H](OCCC(C)C)C[C@H]1N.Cl")
0.0156
>>> reported_value("Cl.NC[C@H]1O[C@H](O[C@H]2[C@H](OCc3ccccc3)[C@@H](OCc3ccccc3)[C@H](N)C[C@@H]2N)[C@H](N)C[C@@H]1OCc1ccccc1")
0.0312
>>> reported_value("NC[C@H]1O[C@H](O[C@H]2[C@H](OC(=O)Nc3ccccc3)[C@@H](O[C@H]3O[C@H](COC(=O)Nc4ccccc4)[C@@H](OC(=O)Nc4ccccc4)[C@H](N)[C@H]3OC(=O)Nc3ccccc3)[C@H](N)C[C@@H]2N)[C@H](N)C[C@@H]1OC(=O)Nc1ccccc1.O=C(O)C(F)(F)F")
0.008

Continue with the compound presented below.
Recorded MIC for NC[C@H]1O[C@H](O[C@H]2[C@H](OC(=O)Nc3ccc(Cl)cc3)[C@@H](O[C@H]3O[C@H](COC(=O)Nc4ccc(Cl)cc4)[C@@H](OC(=O)Nc4ccc(Cl)cc4)[C@H](N)[C@H]3OC(=O)Nc3ccc(Cl)cc3)[C@H](N)C[C@@H]2N)[C@H](N)C[C@@H]1OC(=O)Nc1ccc(Cl)cc1.O=C(O)C(F)(F)F on Escherichia coli was 0.5

###

Test system: Acinetobacter baumannii
Measurement description: Antibiotic adjuvant activity against Acinetobacter baumannii ATCC 17978 assessed as fold potentiation incubated for 18 hrs in presence of Rifampicin by two fold broth microdilution checkerboard assay
Assay type: functional
This listing pairs molecules with measured fold change (FC).
Keep the answer to the number alone.

Worked cases, answers included:
>>> reported_value("NC[C@H]1O[C@H](O[C@H]2[C@H](OC(=O)Nc3ccc(Cl)cc3)[C@@H](O[C@H]3O[C@H](COC(=O)Nc4ccc(Cl)cc4)[C@@H](OC(=O)Nc4ccc(Cl)cc4)[C@H](N)[C@H]3OC(=O)Nc3ccc(Cl)cc3)[C@H](N)C[C@@H]2N)[C@H](N)C[C@@H]1OC(=O)Nc1ccc(Cl)cc1.O=C(O)C(F)(F)F")
16
>>> reported_value("Cl.NC[C@H]1O[C@H](O[C@H]2[C@H](OCc3ccccc3)[C@@H](O[C@H]3O[C@H](COCc4ccccc4)[C@@H](OCc4ccccc4)[C@H](N)[C@H]3OCc3ccccc3)[C@H](N)C[C@@H]2N)[C@H](N)C[C@@H]1OCc1ccccc1")
8
>>> reported_value("NC[C@H]1O[C@H](O[C@H]2[C@H](OC(=O)Nc3ccccc3)[C@@H](O[C@H]3O[C@H](COC(=O)Nc4ccccc4)[C@@H](OC(=O)Nc4ccccc4)[C@H](N)[C@H]3OC(=O)Nc3ccccc3)[C@H](N)C[C@@H]2N)[C@H](N)C[C@@H]1OC(=O)Nc1ccccc1.O=C(O)C(F)(F)F")
16
>>> reported_value("CC(C)CCOC[C@H]1O[C@H](O[C@@H]2[C@@H](OCCC(C)C)[C@H](O[C@H]3O[C@H](CN)[C@@H](OCCC(C)C)C[C@H]3N)[C@@H](N)C[C@H]2N)[C@H](OCCC(C)C)[C@@H](N)[C@@H]1OCCC(C)C.Cl")
2048
>>> reported_value("CC(C)CCO[C@@H]1[C@@H](OCCC(C)C)[C@H](N)C[C@H](N)[C@H]1O[C@H]1O[C@H](CN)[C@@H](OCCC(C)C)C[C@H]1N.Cl")
4

Next, consider the following molecule.
So, Cl.NC[C@H]1O[C@H](O[C@H]2[C@H](OCc3ccccc3)[C@@H](OCc3ccccc3)[C@H](N)C[C@@H]2N)[C@H](N)C[C@@H]1OCc1ccccc1 ? Its fold change (FC) was 4

###

Test system: Pseudomonas aeruginosa
Measurement description: Antibiotic adjuvant activity against Pseudomonas aeruginosa PAO1 assessed as fold potentiation incubated for 18 hrs in presence of Rifampicin by two fold broth microdilution checkerboard assay
Type: functional
# fold change (FC) per record follows
Answer with a number only.

What the record says about CC(C)CCOC[C@H]1O[C@H](O[C@@H]2[C@@H](OCCC(C)C)[C@H](O[C@H]3O[C@H](CN)[C@@H](OCCC(C)C)C[C@H]3N)[C@@H](N)C[C@H]2N)[C@H](OCCC(C)C)[C@@H](N)[C@@H]1OCCC(C)C.Cl : fold change (FC) is 16

Please fill in: fold change (FC) reported for NC[C@H]1O[C@H](O[C@H]2[C@H](OC(=O)Nc3ccc(Cl)cc3)[C@@H](O[C@H]3O[C@H](COC(=O)Nc4ccc(Cl)cc4)[C@@H](OC(=O)Nc4ccc(Cl)cc4)[C@H](N)[C@H]3OC(=O)Nc3ccc(Cl)cc3)[C@H](N)C[C@@H]2N)[C@H](N)C[C@@H]1OC(=O)Nc1ccc(Cl)cc1.O=C(O)C(F)(F)F = 1

Field fold change (FC) (entry CC(C)CCO[C@@H]1[C@@H](OCCC(C)C)[C@H](N)C[C@H](N)[C@H]1O[C@H]1O[C@H](CN)[C@@H](OCCC(C)C)C[C@H]1N.Cl ) reads 4

###

MIC by entry:
Test system: Pseudomonas aeruginosa
Measurement description: Antibacterial activity against multi-drug resistant Pseudomonas aeruginosa clinical isolate PA259 assessed as inhibition of bacterial growth incubated for 18 hrs by two fold broth microdilution assay
Format: functional
Provide the reading as a plain figure in µg/mL.

Would you please look over these solved cases?
>>> reported_value("CN(C)c1ccc(O)c2c1C[C@H]1C[C@H]3[C@H](N(C)C)C(O)=C(C(N)=O)C(=O)[C@@]3(O)C(O)=C1C2=O [MINOCYCLINE]")
128
>>> reported_value("C[C@H]1c2cccc(O)c2C(=O)C2=C(O)[C@]3(O)C(=O)C(C(N)=O)=C(O)[C@@H](N(C)C)[C@@H]3[C@@H](O)[C@@H]21.O [DOXYCYCLINE]")
256
>>> reported_value("Cl.NC[C@H]1O[C@H](O[C@H]2[C@H](OCc3ccccc3)[C@@H](O[C@H]3O[C@H](COCc4ccccc4)[C@@H](OCc4ccccc4)[C@H](N)[C@H]3OCc3ccccc3)[C@H](N)C[C@@H]2N)[C@H](N)C[C@@H]1OCc1ccccc1")
128

response.value for CO[C@H]1/C=C/O[C@@]2(C)Oc3c(C)c(O)c4c(O)c(c(/C=N/N5CCN(C)CC5)c(O)c4c3C2=O)NC(=O)/C(C)=C\C=C\[C@H](C)[C@H](O)[C@@H](C)[C@@H](O)[C@@H](C)[C@H](OC(C)=O)[C@@H]1C [RIFAMPIN] (field: MIC) = 16
